System: MDA-MB-231 breast
testMethodNotes: NCI-60 one-dose screen, 48 h
details: 10 µM unless noted
Compounds without any hit were thinned out: in the full panel of roughly 83,000, 20% have a hit. Active and inactive are the calls of the source. How the source made its calls: active means growth percent below 10; inactive means the rest.
Reply using exactly one outcome from Yes (active), No (inactive)

Solved entries:
[
  {
    "molecule": "CCN1C(=O)CC(=O)N(CC)C1=S",
    "categoryLabel": "No"
  },
  {
    "molecule": "CC(C)CCC1C(=O)NC(=O)NC1=O",
    "categoryLabel": "No"
  },
  {
    "molecule": "CC[C@H](C)[C@H](NC(=O)c1cnccn1)C(=O)N(C)[C@H](C[C@@H](OC(C)=O)c1nc(C(=O)N[C@@H](Cc2ccccc2)C[C@H](C)C(=O)OC)cs1)C(C)C",
    "categoryLabel": "Yes"
  },
  {
    "molecule": "N#CCN(CC#N)[N+](=O)[O-]",
    "categoryLabel": "No"
  }
]

Pending molecule:
# fetch the recorded call for COCC1OC2OC3C(COC)OC(OC4C(COC)OC(OC5C(COC)OC(OC6C(COC)OC(OC7C(COC)OC(OC8C(COC)OC(OC1C(O)C2O)C(O)C8O)C(O)C7O)C(O)C6O)C(O)C5O)C(O)C4O)C(O)C3O (stereo not given) (tested in a mixture with another compound) here
No
